Biological target: MERTK (human)
Experiment: KINOMEscan competition binding
Conditions: compound 10.0 µM
readout-type: kinase still bound, per cent of control

query-smiles: c1ccc(-c2n[nH]cc2-c2ccnc3ccccc23)nc1
target-under-test: MERTK (human)
kinase still bound, per cent of control: no effect (inactive)
//
query-smiles: Cc1ccc(O)cc1Nc1ccnc(Nc2cccc(C(N)=O)c2)n1
target-under-test: MERTK (human)
kinase still bound, per cent of control: no effect (inactive)
//
query-smiles: O=C(Nc1n[nH]c2nc(-c3cccc(O)c3)ccc12)C1CC1
target-under-test: MERTK (human)
kinase still bound, per cent of control: no effect (inactive)
//
query-smiles: NC(=O)c1ccc(Nc2cc(-c3ccc(F)cc3)[nH]n2)cc1
target-under-test: MERTK (human)
kinase still bound, per cent of control: no effect (inactive)
//
query-smiles: Cc1ccc(NC(=O)c2cccc(N3CCCCC3)c2)cc1-c1ccc(C(=O)NCC2CC2)cc1
target-under-test: MERTK (human)
kinase still bound, per cent of control: no effect (inactive)
//
query-smiles: Cc1ccc(C(=O)Nc2cccc(C(C)(C)C)c2)cc1-c1ccc(C(=O)NCC2CC2)cc1
target-under-test: MERTK (human)
kinase still bound, per cent of control: no effect (inactive)
//
query-smiles: CC(=O)c1c(-c2ccncc2)[nH]c(-c2ccncc2)c1C
target-under-test: MERTK (human)
kinase still bound, per cent of control: no effect (inactive)
//
query-smiles: NC(=O)c1ccc(-c2cc(C(N)=O)c(N)c(-c3ccc(S(N)(=O)=O)cc3)c2)cc1
target-under-test: MERTK (human)
kinase still bound, per cent of control: no effect (inactive)

Alright, here's another compound for you.
Which value of kinase still bound, per cent of control has been reported for CCS(=O)(=O)Nc1ccc2c(c1)[C@H](/C(=N/c1ccc(CN3CCCCC3)cc1)c1ccccc1)C(=O)N2 in the records?
0%

###

Biological target: MARK1 (human) (UniProt Q9P0L2)
Sequence (Q9P0L2 whole entry, looked up): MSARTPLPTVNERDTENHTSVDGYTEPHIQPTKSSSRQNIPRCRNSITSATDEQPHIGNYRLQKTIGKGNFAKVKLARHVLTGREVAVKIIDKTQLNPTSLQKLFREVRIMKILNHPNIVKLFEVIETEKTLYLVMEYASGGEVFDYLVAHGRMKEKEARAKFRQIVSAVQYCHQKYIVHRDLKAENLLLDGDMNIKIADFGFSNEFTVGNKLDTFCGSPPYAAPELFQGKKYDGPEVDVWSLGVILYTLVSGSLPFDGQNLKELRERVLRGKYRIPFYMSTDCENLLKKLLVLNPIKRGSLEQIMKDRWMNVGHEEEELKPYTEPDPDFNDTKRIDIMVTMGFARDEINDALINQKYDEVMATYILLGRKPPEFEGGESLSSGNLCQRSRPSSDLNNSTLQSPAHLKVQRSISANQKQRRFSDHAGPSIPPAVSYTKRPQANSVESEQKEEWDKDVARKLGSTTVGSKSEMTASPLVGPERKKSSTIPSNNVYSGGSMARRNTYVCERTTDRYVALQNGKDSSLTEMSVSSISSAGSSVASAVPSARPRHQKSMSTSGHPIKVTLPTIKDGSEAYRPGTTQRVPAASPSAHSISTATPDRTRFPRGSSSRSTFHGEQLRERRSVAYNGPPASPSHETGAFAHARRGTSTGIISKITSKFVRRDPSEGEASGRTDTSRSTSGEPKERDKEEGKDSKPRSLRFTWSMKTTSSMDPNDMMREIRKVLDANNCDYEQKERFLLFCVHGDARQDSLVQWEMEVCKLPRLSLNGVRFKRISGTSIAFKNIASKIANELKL
Test: KINOMEscan competition binding
Details: compound 10.0 µM
readout-type: kinase still bound, per cent of control

Some solved entries appear below for comparison.
query-smiles: O=C(Nc1n[nH]c2nc(-c3cccc(O)c3)ccc12)C1CC1
measured-value: no effect (inactive)
--
query-smiles: NC(=O)c1ccc(-c2cc(C(N)=O)c(N)c(-c3ccc(S(N)(=O)=O)cc3)c2)cc1
measured-value: no effect (inactive)
--
query-smiles: N#Cc1ccc(-c2cnc3[nH]cc(NC(=O)c4cccnc4)c3c2)cc1
measured-value: no effect (inactive)
--
query-smiles: CCS(=O)(=O)Nc1ccc2c(c1)[C@H](/C(=N/c1ccc(CN3CCCCC3)cc1)c1ccccc1)C(=O)N2
measured-value: 0%
--
query-smiles: NC(=O)c1ccc(Nc2cc(-c3ccc(F)cc3)[nH]n2)cc1
measured-value: no effect (inactive)

Alright, here's another molecule for you.
Which value of kinase still bound, per cent of control has been reported for NC(=O)Nc1sc(-c2ccc(F)cc2)cc1C(N)=O in the records?
no effect (inactive)

###

Target: AURKC (human) (UniProt Q9UQB9)
Sequence (Q9UQB9 whole entry, looked up): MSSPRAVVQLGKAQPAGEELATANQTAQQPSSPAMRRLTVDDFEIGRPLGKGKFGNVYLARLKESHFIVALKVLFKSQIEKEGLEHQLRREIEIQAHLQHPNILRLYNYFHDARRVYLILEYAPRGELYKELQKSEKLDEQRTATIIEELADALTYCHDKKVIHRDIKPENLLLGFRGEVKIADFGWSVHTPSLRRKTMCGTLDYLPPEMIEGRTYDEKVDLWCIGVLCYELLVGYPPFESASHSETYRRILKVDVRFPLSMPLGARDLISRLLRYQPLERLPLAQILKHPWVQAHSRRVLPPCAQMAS
Assay: KINOMEscan competition binding
Settings: compound 10.0 µM
readout-type: kinase still bound, per cent of control

Some solved entries appear below for comparison.
query-smiles: NC(=O)c1ccc(-c2cc(C(N)=O)c(N)c(-c3ccc(S(N)(=O)=O)cc3)c2)cc1
kinase still bound, per cent of control: no effect (inactive)
--
query-smiles: Cc1ccc(O)cc1Nc1ccnc(Nc2cccc(C(N)=O)c2)n1
kinase still bound, per cent of control: no effect (inactive)
--
query-smiles: Cc1ccc(NC(=O)c2cccc(N3CCCCC3)c2)cc1-c1ccc(C(=O)NCC2CC2)cc1
kinase still bound, per cent of control: no effect (inactive)
--
query-smiles: Cc1ccc(C(=O)Nc2cccc(C(C)(C)C)c2)cc1-c1ccc(C(=O)NCC2CC2)cc1
kinase still bound, per cent of control: no effect (inactive)
--
query-smiles: NC(=O)c1ccc(Nc2cc(-c3ccc(F)cc3)[nH]n2)cc1
kinase still bound, per cent of control: no effect (inactive)
--
query-smiles: CCS(=O)(=O)Nc1ccc2c(c1)[C@H](/C(=N/c1ccc(CN3CCCCC3)cc1)c1ccccc1)C(=O)N2
kinase still bound, per cent of control: 0.5%
--
query-smiles: CC(=O)c1c(-c2ccncc2)[nH]c(-c2ccncc2)c1C
kinase still bound, per cent of control: no effect (inactive)

Alright, here's another molecule for you.
Which value of kinase still bound, per cent of control has been reported for c1ccc(-c2n[nH]cc2-c2ccnc3ccccc23)nc1 in the records?
no effect (inactive)

###

Biological target: STK38L (human) (UniProt Q9Y2H1)
Sequence (Q9Y2H1 whole entry, looked up): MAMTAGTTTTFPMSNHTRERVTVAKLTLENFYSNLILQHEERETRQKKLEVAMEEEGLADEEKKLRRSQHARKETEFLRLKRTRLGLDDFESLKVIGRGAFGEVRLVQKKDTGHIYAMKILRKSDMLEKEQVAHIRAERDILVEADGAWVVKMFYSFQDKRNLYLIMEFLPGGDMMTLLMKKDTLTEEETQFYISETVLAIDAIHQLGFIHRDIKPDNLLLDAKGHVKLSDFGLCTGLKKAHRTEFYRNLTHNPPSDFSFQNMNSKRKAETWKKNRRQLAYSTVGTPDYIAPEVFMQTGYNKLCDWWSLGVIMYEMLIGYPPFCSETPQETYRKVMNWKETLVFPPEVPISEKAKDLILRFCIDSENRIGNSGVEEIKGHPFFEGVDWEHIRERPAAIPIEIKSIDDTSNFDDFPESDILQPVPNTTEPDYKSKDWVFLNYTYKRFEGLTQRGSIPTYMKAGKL
Assay: KINOMEscan competition binding
Details: compound 10.0 µM
readout-type: kinase still bound, per cent of control

Some solved entries appear below for comparison.
query-smiles: CN(C)c1ccc(-c2cc3ncccc3c(NCCCCN)n2)cc1
readout-type: kinase still bound, per cent of control
measured-value: no effect (inactive)

query-smiles: CCS(=O)(=O)Nc1ccc2c(c1)[C@H](/C(=N/c1ccc(CN3CCCCC3)cc1)c1ccccc1)C(=O)N2
readout-type: kinase still bound, per cent of control
measured-value: 0%

query-smiles: Cc1ccc(NC(=O)c2cccc(N3CCCCC3)c2)cc1-c1ccc(C(=O)NCC2CC2)cc1
readout-type: kinase still bound, per cent of control
measured-value: no effect (inactive)

query-smiles: Cc1ccc(C(=O)Nc2cccc(C(C)(C)C)c2)cc1-c1ccc(C(=O)NCC2CC2)cc1
readout-type: kinase still bound, per cent of control
measured-value: no effect (inactive)

query-smiles: CC(=O)c1c(-c2ccncc2)[nH]c(-c2ccncc2)c1C
readout-type: kinase still bound, per cent of control
measured-value: no effect (inactive)

query-smiles: NC(=O)c1ccc(-c2cc(C(N)=O)c(N)c(-c3ccc(S(N)(=O)=O)cc3)c2)cc1
readout-type: kinase still bound, per cent of control
measured-value: no effect (inactive)

query-smiles: O=C(Nc1n[nH]c2nc(-c3cccc(O)c3)ccc12)C1CC1
readout-type: kinase still bound, per cent of control
measured-value: no effect (inactive)

query-smiles: Nc1ncnc2c1c(-c1cccc(O)c1)cn2C1CCNCC1
readout-type: kinase still bound, per cent of control
measured-value: no effect (inactive)

query-smiles: Cc1ccc(O)cc1Nc1ccnc(Nc2cccc(C(N)=O)c2)n1
readout-type: kinase still bound, per cent of control
measured-value: no effect (inactive)

query-smiles: c1ccc(-c2n[nH]cc2-c2ccnc3ccccc23)nc1
readout-type: kinase still bound, per cent of control
measured-value: no effect (inactive)

Alright, here's another compound for you.
Which value of kinase still bound, per cent of control has been reported for N#Cc1ccc(-c2cnc3[nH]cc(NC(=O)c4cccnc4)c3c2)cc1 in the records?
no effect (inactive)

###

Biological target: PTK2 (human)
Experiment: KINOMEscan competition binding
Conditions: compound 10.0 µM

query-smiles: CCS(=O)(=O)Nc1ccc2c(c1)[C@H](/C(=N/c1ccc(CN3CCCCC3)cc1)c1ccccc1)C(=O)N2
target-under-test: PTK2 (human)
kinase still bound, per cent of control: 0%
--
query-smiles: Cc1ccc(O)cc1Nc1ccnc(Nc2cccc(C(N)=O)c2)n1
target-under-test: PTK2 (human)
kinase still bound, per cent of control: no effect (inactive)
--
query-smiles: CC(=O)c1c(-c2ccncc2)[nH]c(-c2ccncc2)c1C
target-under-test: PTK2 (human)
kinase still bound, per cent of control: no effect (inactive)

###

Molecular target: PKMYT1 (human) (UniProt Q99640)
Sequence (Q99640 whole entry, looked up): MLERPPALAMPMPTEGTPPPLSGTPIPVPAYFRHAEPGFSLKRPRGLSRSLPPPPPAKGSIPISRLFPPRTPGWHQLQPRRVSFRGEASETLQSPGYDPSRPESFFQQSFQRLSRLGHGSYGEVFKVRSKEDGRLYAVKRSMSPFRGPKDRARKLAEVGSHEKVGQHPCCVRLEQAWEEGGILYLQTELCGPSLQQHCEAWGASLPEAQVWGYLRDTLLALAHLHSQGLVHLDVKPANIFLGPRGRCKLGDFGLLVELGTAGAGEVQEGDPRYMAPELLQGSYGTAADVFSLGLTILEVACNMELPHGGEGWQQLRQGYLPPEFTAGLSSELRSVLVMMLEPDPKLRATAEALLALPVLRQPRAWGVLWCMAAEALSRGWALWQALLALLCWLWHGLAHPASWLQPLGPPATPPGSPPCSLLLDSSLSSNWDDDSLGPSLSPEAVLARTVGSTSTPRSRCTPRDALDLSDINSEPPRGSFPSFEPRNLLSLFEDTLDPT
Assay: KINOMEscan competition binding
Conditions: compound 10.0 µM
readout-type: kinase still bound, per cent of control

query-smiles: Cc1cc(Nc2cc(N3CCN(C)CC3)nc(Sc3ccc(NC(=O)C4CC4)cc3)n2)[nH]n1
measured-value: no effect (inactive)

query-smiles: O=C1Nc2ccccc2/C1=C/c1ccc[nH]1
measured-value: no effect (inactive)

query-smiles: Nc1ncnc2c1c(-c1cccc(O)c1)cn2C1CCNCC1
measured-value: no effect (inactive)

###

Molecular target: MKNK2 (human) (UniProt Q9HBH9)
Sequence (Q9HBH9 whole entry, looked up): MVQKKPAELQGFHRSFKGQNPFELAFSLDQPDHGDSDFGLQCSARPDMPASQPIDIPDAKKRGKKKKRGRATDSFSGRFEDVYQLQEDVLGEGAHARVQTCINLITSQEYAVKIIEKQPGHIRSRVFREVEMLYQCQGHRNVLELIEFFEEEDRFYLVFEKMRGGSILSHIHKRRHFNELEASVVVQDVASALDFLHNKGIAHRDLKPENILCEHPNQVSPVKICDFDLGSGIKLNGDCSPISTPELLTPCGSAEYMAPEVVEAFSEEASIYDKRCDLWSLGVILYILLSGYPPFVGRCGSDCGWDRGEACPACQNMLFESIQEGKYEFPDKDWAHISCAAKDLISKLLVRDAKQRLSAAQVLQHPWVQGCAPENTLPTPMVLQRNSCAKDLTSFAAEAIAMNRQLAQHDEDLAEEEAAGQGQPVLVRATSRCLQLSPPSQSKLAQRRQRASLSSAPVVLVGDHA
Test: KINOMEscan competition binding
Conditions: compound 10.0 µM

query-smiles: O=C(Nc1n[nH]c2nc(-c3cccc(O)c3)ccc12)C1CC1
kinase still bound, per cent of control: no effect (inactive)
//
query-smiles: NC(=O)c1ccc(-c2cc(C(N)=O)c(N)c(-c3ccc(S(N)(=O)=O)cc3)c2)cc1
kinase still bound, per cent of control: no effect (inactive)
//
query-smiles: c1ccc(-c2n[nH]cc2-c2ccnc3ccccc23)nc1
kinase still bound, per cent of control: no effect (inactive)

###

Target: STK36 (human)
Assay: KINOMEscan competition binding
Settings: compound 10.0 µM
readout-type: kinase still bound, per cent of control

Some solved entries appear below for comparison.
query-smiles: N#Cc1ccc(-c2cnc3[nH]cc(NC(=O)c4cccnc4)c3c2)cc1
kinase still bound, per cent of control: no effect (inactive)
--
query-smiles: Nc1ncnc2c1c(-c1cccc(O)c1)cn2C1CCNCC1
kinase still bound, per cent of control: 0%
--
query-smiles: c1ccc(-c2n[nH]cc2-c2ccnc3ccccc23)nc1
kinase still bound, per cent of control: no effect (inactive)
--
query-smiles: Cc1ccc(C(=O)Nc2cccc(C(C)(C)C)c2)cc1-c1ccc(C(=O)NCC2CC2)cc1
kinase still bound, per cent of control: no effect (inactive)

Alright, here's another compound for you.
Which value of kinase still bound, per cent of control has been reported for Cc1cc(Nc2cc(N3CCN(C)CC3)nc(Sc3ccc(NC(=O)C4CC4)cc3)n2)[nH]n1 in the records?
no effect (inactive)
